Provide the reported pIC50 of each item.
System: Plasmodium falciparum
Assay: Antiplasmodial activity against Plasmodium falciparum CSL-2 harboring DHFR NRNL haplotype C59R/S108N/I164L triple mutant
Format: functional, organism-based
Reminder that pIC50 means the negative base-10 logarithm of the concentration expressed in mol/L.

get_value(item= `CCc1nc(N)nc(N)c1-c1cccc(Cl)c1` , readout=pIC50) returns 5.60

get_value(item= `CCc1nc(N)nc(N)c1-c1ccc(Cl)cc1` , readout=pIC50) returns 4.38
